- Tested on: MCF-7
- Assay Comment: MTT dose-response anti-proliferative assay, MCF-7
- Type: cell-based, human
- Test Conditions: MCF-7, MTT
Endpoint Label: pIC50
Give bare numbers, as −log10 of the molar value.

Data request, read-out pIC50, for CCOC(=O)c1c(NC(=S)Nc2ccccc2)sc2c1CCCC2 [Compound 11]
5.12

###

So I've got a bunch of compounds here, and I need their melting point values.

{"Compound": "Nn1c(Nc2ccccc2)nc2sc3c(c2c1=O)CCCC3 [Compound 12]", "melting point": "198 to 200 °C"}
{"Compound": "Cc1nc2sc3c(c2c(=O)n1NC(=S)Nc1ccccc1)CCCC3 [Compound 5]", "melting point": "138 to 140 °C"}
{"Compound": "Cc1nc2sc3c(c2c(=O)n1NC(=O)CN1CCN(C)CC1)CCCC3 [Compound 10b]", "melting point": "187 to 189 °C"}

For each of the compounds below, note its melting point.
1. Cc1nc2sc3c(c2c(=O)n1NCC(=O)Nc1cc(C(C)(C)C)no1)CCCC3 [Compound 7a]
2. Cc1nc2sc3c(c2c(=O)n1NC(=O)CNc1cc(C(C)(C)C)on1)CCCC3 [Compound 9b]
3. Cc1nc2sc3c(c2c(=O)n1NCC(=O)Nc1cc(C(C)(C)C)on1)CCCC3 [Compound 7b]
4. Cc1nc2sc3c(c2c(=O)n1N1C(=O)CN(c2ccccc2)C1=S)CCCC3 [Compound 6]
5. CCOC(=O)c1c(NC(=S)Nc2ccccc2)sc2c1CCCC2 [Compound 11]
6. Cc1nc2sc3c(c2c(=O)n1NC(=O)CNc1cc(C(C)(C)C)no1)CCCC3 [Compound 9a]
7. Cc1nc2sc3c(c2c(=O)n1NC(=O)CN1CCOCC1)CCCC3 [Compound 10a]

1. 120 to 122 °C
2. 98 to 100 °C
3. 128 to 130 °C
4. 198 to 200 °C
5. 170 to 172 °C
6. 89 to 92 °C
7. 222 to 225 °C

Data request, read-out melting point, for CC1=CC(=O)N(n2c(C)nc3sc4c(c3c2=O)CCCC4)C1=O [Compound 4]
125 to 127 °C

###

- Test system: normal colon epithelial cells (CCD 841 CoN)
- Assay Comment: Selectivity assay (MTT) on non-cancerous cells
- Type: cell-based
- Test Conditions: ratio normal CCD 841 / cancer HT-29, 72 h
- Experimental: In an attempt to evaluate the anticancer activity of the compounds, selectivity assay was performed and compounds’ selectivity to malignant cells was determined, reflected by their selectivity index. The selectivity index (SI) was calculated by the ratio of the IC50 value of the selected compounds on normal colon epithelial cells (CCD 841 CoN) to the IC50 value of the compounds on cancer cells (HT-29). […]
So I've got a bunch of molecules here, and I need their Selectivity Index (SI) (IC50 of CCD 841/IC50 of HT29) values.
Numbers only.

Solved entries (count: 2):
{"Cpd Smiles": "Cc1nc2sc3c(c2c(=O)n1NC(=O)CNc1cc(C(C)(C)C)on1)CCCC3", "Val": 20.2}
{"Cpd Smiles": "Cc1nc2sc3c(c2c(=O)n1NC(=O)CNc1cc(C(C)(C)C)no1)CCCC3", "Val": 9.4}

For each of the molecules below, note its Selectivity Index (SI) (IC50 of CCD 841/IC50 of HT29).
1. Cc1nc2sc3c(c2c(=O)n1NC(=O)CCl)CCCC3
2. CCOC(=O)c1c(NC(=S)Nc2ccccc2)sc2c1CCCC2

[75.5, 99.7]
